The measurements presented in this section are drawn from patent US20240343694A1.

Could you please report measured IC50 for the items listed next?
- tested-system: EGFR A763_Y764insFHEA (Homo sapiens (Human), UniProt P00533, INS763FHEA)
- Sequence (P00533 other isoform, or with tags, fused parts or gaps del 1-694/ins FHEA behind 763 limits assumed): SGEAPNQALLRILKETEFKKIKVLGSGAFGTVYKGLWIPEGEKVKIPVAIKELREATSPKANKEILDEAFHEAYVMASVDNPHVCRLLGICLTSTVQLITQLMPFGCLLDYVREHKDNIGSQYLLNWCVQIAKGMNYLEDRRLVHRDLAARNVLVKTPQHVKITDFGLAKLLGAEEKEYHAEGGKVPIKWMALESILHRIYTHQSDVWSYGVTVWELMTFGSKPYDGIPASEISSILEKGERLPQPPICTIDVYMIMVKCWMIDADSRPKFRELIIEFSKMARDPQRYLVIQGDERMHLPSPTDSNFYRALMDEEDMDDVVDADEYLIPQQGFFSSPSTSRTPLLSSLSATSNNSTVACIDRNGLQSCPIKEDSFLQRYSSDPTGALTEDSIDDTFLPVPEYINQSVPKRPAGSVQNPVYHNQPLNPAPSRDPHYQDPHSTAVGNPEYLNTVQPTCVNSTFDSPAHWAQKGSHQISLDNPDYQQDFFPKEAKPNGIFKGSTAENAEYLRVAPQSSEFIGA
- protocol: HTRF inhibitory activity against EGFR mutant enzyme (EGFR A763_Y764insFHEA)
- condition-notes: recombinant enzyme, 37° C. for 2 hours

Q: // map `C=CC(=O)Nc1cc(Nc2ncc(Cl)c(Nc3ccccc3NS(C)(=O)=O)n2)c(OC)cc1N(C)CCN1CCCCC1` to recorded IC50 (system: EGFR A763_Y764insFHEA (Homo sapiens (Human), UniProt P00533, INS763FHEA))
Ans: 3 nM

Q: Here is the next compound: `C=CC(=O)Nc1cc(Nc2ncc(F)c(Nc3ccccc3NS(=O)(=O)c3ccc(C)cc3)n2)c(OC)cc1N(C)CCN(C)C`
Ans: 10 nM

Q: Here is the next compound: `C=CC(=O)Nc1cc(Nc2ncc(Cl)c(Nc3ccccc3NS(=O)(=O)C(C)C)n2)c(OC)cc1N(C)CCN(C)C`
Ans: < 1 nM

Q: Here is the next compound: `C=CC(=O)Nc1cc(Nc2ncc(Cl)c(Nc3ccc(C)c(C)c3N(C)S(C)(=O)=O)n2)c(OC)cc1N(C)CCN(C)C`
Ans: < 1 nM

Q: Here is the next compound: `C=CC(=O)Nc1cc(Nc2ncc(C)c(Nc3ccccc3NS(=O)(=O)CC)n2)c(OC)cc1N(C)CCN(C)C`
Ans: 3 nM

Q: Here is the next compound: `C=CC(=O)Nc1cc(Nc2ncc(F)c(Nc3ccccc3NS(=O)(=O)CCC)n2)c(OC)cc1N(C)CCN(C)C`
Ans: 10 nM

Q: Here is the next compound: `C=CC(=O)Nc1cc(Nc2ncc(Cl)c(Nc3ccc4nccnc4c3N(C)S(C)(=O)=O)n2)c(OC)cc1N(C)CCN(C)C`
Ans: < 1 nM

====

- tested-system: EGFR del19 (Homo sapiens (Human), UniProt P00533, DEL746-750)
- Sequence (P00533 other isoform, or with tags, fused parts or gaps del 1-668/del 746-750 limits assumed): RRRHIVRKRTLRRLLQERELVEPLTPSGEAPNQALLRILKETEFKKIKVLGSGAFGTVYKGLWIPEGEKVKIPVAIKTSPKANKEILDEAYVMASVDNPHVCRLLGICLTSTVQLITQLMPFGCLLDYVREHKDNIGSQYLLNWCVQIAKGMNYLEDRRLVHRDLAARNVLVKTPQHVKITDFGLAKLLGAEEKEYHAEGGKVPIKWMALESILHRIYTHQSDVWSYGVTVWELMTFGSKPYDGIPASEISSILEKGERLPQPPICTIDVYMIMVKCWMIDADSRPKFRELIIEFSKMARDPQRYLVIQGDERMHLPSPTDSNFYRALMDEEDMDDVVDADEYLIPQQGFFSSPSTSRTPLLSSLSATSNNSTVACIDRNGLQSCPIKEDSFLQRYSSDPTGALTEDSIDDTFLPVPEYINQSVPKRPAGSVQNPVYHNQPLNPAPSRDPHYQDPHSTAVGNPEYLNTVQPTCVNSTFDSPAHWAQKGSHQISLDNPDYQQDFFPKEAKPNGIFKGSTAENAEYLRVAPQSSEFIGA
- protocol: HTRF inhibitory activity against EGFR mutant enzyme (EGFR del19)
- condition-notes: recombinant enzyme, 37° C. for 2 hours
pIC50: −log10 of the molar value.
Could you please report measured pIC50 for the items listed next?

Q: What value of pIC50 has been recorded for this entry: C=CC(=O)Nc1cc(Nc2ncc(F)c(Nc3ccccc3NS(=O)(=O)c3ccc(C)cc3)n2)c(OC)cc1N(C)CCN(C)C [Example 15]
Ans: 8.00

Q: Here is the next compound: C=CC(=O)Nc1cc(Nc2nccc(Nc3ccccc3NS(C)(=O)=O)n2)c(OC)cc1N(C)CCN(C)C [Example 7]
Ans: > 9.00

Q: Here is the next compound: C=CC(=O)Nc1cc(Nc2ncc(Cl)c(Nc3cccc4c3N(S(C)(=O)=O)CC4)n2)c(OC)cc1OCCN1CCCC1 [Example 79]
Ans: > 9.00

Q: Here is the next compound: COc1cc(N2CCN(C)CC2)c(NC(=O)/C=C/CN(C)C)cc1Nc1ncc(Cl)c(Nc2ccccc2NS(C)(=O)=O)n1 [Example 27]
Ans: 8.52

Q: Here is the next compound: C=CC(=O)Nc1cc(Nc2ncc(Cl)c(Nc3ccccc3N3CCCCS3(=O)=O)n2)c(OC)cc1N(C)CCN(C)C [Example 71]
Ans: > 9.00

Q: Here is the next compound: C=CC(=O)Nc1cc(Nc2ncc(Cl)c(Nc3ccccc3N(CC)S(=O)(=O)CC)n2)c(OC)cc1N(C)CCN(C)C [Example 33]
Ans: > 9.00

Q: Here is the next compound: C=CC(=O)Nc1cc(Nc2ncc(Cl)c(Nc3ccc(C)c(C)c3NS(C)(=O)=O)n2)c(OC)cc1N(C)CCN(C)C [Example 44]
Ans: > 9.00

Q: Here is the next compound: C=CC(=O)Nc1cc(Nc2ncc(C)c(Nc3ccccc3NS(C)(=O)=O)n2)c(OC)cc1N(C)CCN(C)C [Example 16]
Ans: > 9.00

Q: Here is the next compound: C=CC(=O)Nc1cc(Nc2ncc(Cl)c(Nc3ccc4nccnc4c3NS(C)(=O)=O)n2)c(OC)cc1N(C)CCN(C)C [Example 69]
Ans: > 9.00

Q: Here is the next compound: C=CC(=O)Nc1cc(Nc2ncc(Cl)c(Nc3ccc(C)cc3NS(C)(=O)=O)n2)c(OC)cc1N(C)CCN(C)C [Example 46]
Ans: > 9.00

Q: Here is the next compound: C=CC(=O)Nc1cc(Nc2ncc(Cl)c(Nc3cccc4c3N(S(=O)(=O)CC)CC4)n2)c(OC)cc1N(C)CCN(C)C [Example 56]
Ans: > 9.00

Q: Here is the next compound: C=CC(=O)Nc1cc(Nc2ncc(Cl)c(Nc3ccccc3N(C)C(C)=O)n2)c(OC)cc1N(C)CCN(C)C [Example 89]
Ans: 7.70

Q: Here is the next compound: C=CC(=O)Nc1cc(Nc2ncc(Cl)c(Nc3ccc(C)c(C)c3NC(C)=O)n2)c(OC)cc1N(C)CCN(C)C [Example 84]
Ans: 9.00

Q: Here is the next compound: C=CC(=O)Nc1cc(Nc2ncc(Cl)c(Nc3ccccc3N(C)S(=O)(=O)CC)n2)c(OC)cc1N(C)CCN(C)C [Example 30]
Ans: > 9.00

====

- tested-system: HER2 A775_G776insYVMA (Homo sapiens (Human), UniProt P04626, INS775YVMA)
- Sequence (P04626 other isoform, or with tags, fused parts or gaps del 1-675/ins YVMA behind 775 limits assumed): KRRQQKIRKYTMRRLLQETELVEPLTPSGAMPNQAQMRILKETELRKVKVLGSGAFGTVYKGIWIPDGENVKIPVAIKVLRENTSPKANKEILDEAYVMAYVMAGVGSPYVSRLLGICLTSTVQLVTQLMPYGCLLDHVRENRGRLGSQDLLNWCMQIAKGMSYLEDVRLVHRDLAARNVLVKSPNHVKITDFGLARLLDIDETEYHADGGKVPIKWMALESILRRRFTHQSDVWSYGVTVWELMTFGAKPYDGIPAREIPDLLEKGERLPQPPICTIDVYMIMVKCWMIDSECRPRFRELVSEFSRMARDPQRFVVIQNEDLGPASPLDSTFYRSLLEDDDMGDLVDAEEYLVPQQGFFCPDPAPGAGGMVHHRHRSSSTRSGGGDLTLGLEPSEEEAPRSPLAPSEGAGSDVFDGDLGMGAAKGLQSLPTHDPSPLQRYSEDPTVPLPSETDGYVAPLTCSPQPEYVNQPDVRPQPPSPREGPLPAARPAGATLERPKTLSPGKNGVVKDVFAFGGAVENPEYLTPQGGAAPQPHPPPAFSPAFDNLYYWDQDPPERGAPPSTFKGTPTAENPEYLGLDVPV
- protocol: HTRF inhibitory activity against HER2 mutant enzyme
- condition-notes: recombinant enzyme, 37° C. for 2 hours
Could you please report measured pIC50 for the items listed next?
The quantity pIC50 is defined as the negative base-10 logarithm of the molar concentration.

Q: What value of pIC50 has been recorded for this entry: `C=CC(=O)Nc1cc(Nc2ncc(Cl)c(Nc3cccc4ccn(S(C)(=O)=O)c34)n2)c(OC)cc1N(C)CCN(C)C`
Ans: 7.09

Q: Here is the next compound: `C=CC(=O)Nc1cc(Nc2ncc(Cl)c(Nc3cccc4c3N(C(C)=O)CC4)n2)c(OC)cc1N(C)CCNC`
Ans: 8.30

Q: Here is the next compound: `C=CC(=O)Nc1cc(Nc2ncc(Cl)c(Nc3cccc4c3N(C(=O)CC)CCC4)n2)c(OC)cc1N(C)CCN(C)C`
Ans: 6.53

Q: Here is the next compound: `C=CC(=O)Nc1cc(Nc2ncc(Cl)c(Nc3ccc(C)cc3N(C)C(C)=O)n2)c(OC)cc1N(C)CCN(C)C`
Ans: 6.97

Q: Here is the next compound: `C=CC(=O)Nc1cc(Nc2ncc(F)c(Nc3ccccc3NS(=O)(=O)CC)n2)c(OC)cc1N(C)CCN(C)C`
Ans: 7.16

Q: Here is the next compound: `C=CC(=O)Nc1cc(Nc2ncc(C)c(Nc3ccccc3NS(=O)(=O)c3ccc(C)cc3)n2)c(OC)cc1N(C)CCN(C)C`
Ans: 5.96

Q: Here is the next compound: `C=CC(=O)Nc1cc(Nc2nccc(Nc3ccccc3NS(=O)(=O)CCC)n2)c(OC)cc1N(C)CCN(C)C`
Ans: 6.04

====

- tested-system: HER2 A775_G776insYVMA (Homo sapiens (Human), UniProt P04626, INS775YVMA)
- protocol: HTRF inhibitory activity against HER2 mutant enzyme
- condition-notes: recombinant enzyme, 37° C. for 2 hours
quantity-measured: IC50 (nM)
Report as a plain number; the unit nM is understood.

Q: What value of IC50 has been recorded for this entry: `C=CC(=O)Nc1cc(Nc2ncc(Cl)c(Nc3ccc(C)c(C)c3N(C)S(C)(=O)=O)n2)c(OC)cc1N(C)CCN(C)C`
Ans: 8

Q: Here is the next compound: `C=CC(=O)Nc1cc(Nc2ncc(Cl)c(Nc3ccc(C)cc3NS(C)(=O)=O)n2)c(OC)cc1N(C)CCN(C)C`
Ans: 2

Q: Here is the next compound: `C=CC(=O)Nc1cc(Nc2ncc(C)c(Nc3ccccc3NS(=O)(=O)c3ccccc3)n2)c(OC)cc1N(C)CCN(C)C`
Ans: 370

Q: Here is the next compound: `C=CC(=O)Nc1cc(Nc2ncc(Cl)c(Nc3ccccc3N3CCCS3(=O)=O)n2)c(OC)cc1N(C)CCN(C)C`
Ans: 33

Q: Here is the next compound: `C=CC(=O)Nc1cc(Nc2ncc(Cl)c(Nc3ccc(C)c(C)c3N(C)C(C)=O)n2)c(OC)cc1N(C)CCN(C)C`
Ans: 374

Q: Here is the next compound: `C=CC(=O)Nc1cc(Nc2ncc(Cl)c(Nc3ccc(C)c(C)c3NS(C)(=O)=O)n2)c(OC)cc1N(C)CCN(C)C`
Ans: 6

Q: Here is the next compound: `C=CC(=O)Nc1cc(Nc2ncc(Cl)c(Nc3cccc(C)c3NC(C)=O)n2)c(OC)cc1N(C)CCN(C)C`
Ans: 157

Q: Here is the next compound: `C=CC(=O)Nc1cc(Nc2ncc(Cl)c(Nc3ccccc3N(C)C(C)=O)n2)c(OC)cc1N(C)CCN(C)C`
Ans: 479

Q: Here is the next compound: `C=CC(=O)Nc1cc(Nc2ncc(Cl)c(Nc3cccc4c3N(S(C)(=O)=O)CC4)n2)c(OC)cc1N1CCC(N2CCN(C)CC2)CC1`
Ans: 20

Q: Here is the next compound: `C=CC(=O)Nc1cc(Nc2ncc(C(F)(F)F)c(Nc3cccc4c3N(S(C)(=O)=O)CC4)n2)c(OC)cc1N(C)CCN(C)C`
Ans: 15

Q: Here is the next compound: `C=CC(=O)Nc1cc(Nc2ncc(Cl)c(Nc3cccc4c3N(C(=O)CC)CC4)n2)c(OC)cc1N(C)CCN(C)C`
Ans: 11

Q: Here is the next compound: `C=CC(=O)Nc1cc(Nc2ncc(C)c(Nc3ccccc3NS(C)(=O)=O)n2)c(OC)cc1N(C)CCN(C)C`
Ans: 51

Q: Here is the next compound: `COc1cc(N(C)CCN(C)C)c(NC(=O)/C=C/CN(C)C)cc1Nc1ncc(Cl)c(Nc2ccccc2NS(C)(=O)=O)n1`
Ans: 70

Q: Here is the next compound: `C=CC(=O)Nc1cc(Nc2ncc(F)c(Nc3ccccc3NS(=O)(=O)c3ccccc3)n2)c(OC)cc1N(C)CCN(C)C`
Ans: 410

Q: Here is the next compound: `C=CC(=O)Nc1cc(Nc2ncc(F)c(Nc3ccccc3NS(=O)(=O)CCC)n2)c(OC)cc1N(C)CCN(C)C`
Ans: 140

Q: Here is the next compound: `C=CC(=O)Nc1cc(Nc2ncc(Cl)c(Nc3cccc4c3N(S(C)(=O)=O)CCC4)n2)c(OC)cc1N1CCC(N2CCN(C)CC2)CC1`
Ans: 60

Q: Here is the next compound: `CC#CC(=O)Nc1cc(Nc2ncc(Cl)c(Nc3cccc4c3N(S(C)(=O)=O)CC4)n2)c(OC)cc1N(C)CCN(C)C`
Ans: 87

Q: Here is the next compound: `C=CC(=O)Nc1cc(Nc2ncc(Cl)c(Nc3cccc4c3N(S(C)(=O)=O)CC4)n2)c(OC)cc1OCCN1CCCC1`
Ans: 1

Q: Here is the next compound: `C=CC(=O)Nc1cc(Nc2ncc(Cl)c(Nc3ccc(C)cc3NC(C)=O)n2)c(OC)cc1N(C)CCN(C)C`
Ans: 14

Q: Here is the next compound: `C=CC(=O)Nc1cc(Nc2ncc(Cl)c(Nc3cccc4c3N(S(C)(=O)=O)CC4)n2)c(OC)cc1N1CCC(N(C)C)CC1`
Ans: 90

Q: Here is the next compound: `C=CC(=O)Nc1cc(Nc2ncc(Cl)c(Nc3ccc(C)cc3N(C)S(C)(=O)=O)n2)c(OC)cc1N(C)CCN1CCCC1`
Ans: 1

Q: Here is the next compound: `C=CC(=O)Nc1cc(Nc2ncc(Cl)c(Nc3cccc4c3N(S(=O)(=O)CC)CC4)n2)c(OC)cc1N(C)CCN1CCCC1`
Ans: 3

Q: Here is the next compound: `C=CC(=O)Nc1cc(Nc2ncc(Cl)c(Nc3cccc(CC)c3NS(=O)(=O)CC)n2)c(OC)cc1N(C)CCN(C)C`
Ans: 6

Q: Here is the next compound: `C=CC(=O)Nc1cc(Nc2ncc(Cl)c(Nc3ccccc3NS(=O)(=O)c3ccc(C)cc3)n2)c(OC)cc1N(C)CCN(C)C`
Ans: 450

Q: Here is the next compound: `C=C(F)C(=O)Nc1cc(Nc2ncc(Cl)c(Nc3cccc4c3N(S(C)(=O)=O)CCC4)n2)c(OC)cc1N(C)CCN(C)C`
Ans: 10

Q: Here is the next compound: `C=CC(=O)Nc1cc(Nc2ncc(Cl)c(Nc3ccccc3NC(C)=O)n2)c(OC)cc1N(C)CCN(C)C`
Ans: 37
